Cited source: patent US6110961A

Assayed target: MAO-A (Rattus norvegicus, UniProt P21396)
Sequence (P21396 1-526): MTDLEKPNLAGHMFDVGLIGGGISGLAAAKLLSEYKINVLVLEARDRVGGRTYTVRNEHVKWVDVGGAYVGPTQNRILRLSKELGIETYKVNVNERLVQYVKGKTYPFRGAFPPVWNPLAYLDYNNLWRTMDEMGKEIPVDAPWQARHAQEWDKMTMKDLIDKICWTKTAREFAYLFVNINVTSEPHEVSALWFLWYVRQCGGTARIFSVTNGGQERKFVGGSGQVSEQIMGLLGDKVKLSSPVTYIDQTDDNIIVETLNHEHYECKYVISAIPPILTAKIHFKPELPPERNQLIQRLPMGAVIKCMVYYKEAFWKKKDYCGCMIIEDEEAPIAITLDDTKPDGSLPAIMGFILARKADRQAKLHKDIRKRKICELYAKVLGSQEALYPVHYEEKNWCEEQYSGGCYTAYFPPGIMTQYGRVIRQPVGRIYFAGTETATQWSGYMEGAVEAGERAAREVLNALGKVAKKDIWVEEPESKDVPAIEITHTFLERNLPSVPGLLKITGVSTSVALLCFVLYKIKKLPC
Measured attribute: IC50 (nM)
# value in nM; strip the unit string

These solved cases illustrate the format of a correct answer.
Requested read-out: IC50. Entry: O=S1(=O)c2ccccc2Oc2cc(OC(C(F)F)C(F)F)ccc21
3.5

Requested read-out: IC50. Entry: CC(C)(C)Oc1ccc2c(c1)Oc1ccccc1S2(=O)=O [Compound 15, 3-tert-butoxyphenoxathiin 10,10-dioxide]
26

Requested read-out: IC50. Entry: CC(CO)Oc1ccc2c(c1)Oc1ccccc1S2(=O)=O (racemic)
20

Requested read-out: IC50. Entry: CC(Oc1ccc2c(c1)Oc1ccccc1S2(=O)=O)C(F)F (racemic)
1.8

Requested read-out: IC50. Entry: CCCOc1ccc2c(c1)Oc1ccccc1S2(=O)=O [Compound 3, 3-propoxyphenoxathiin 10,10-dioxide]
2.5

Requested read-out: IC50. Entry: CC(Oc1ccc2c(c1)Oc1ccccc1S2(=O)=O)C(F)(F)F (racemic) [Compound 20]
5

Requested read-out: IC50. Entry: CCOc1ccc2c(c1)Oc1ccccc1S2(=O)=O [Compound 2, 3-ethoxyphenoxathiin 10,10-dioxide]
2

Requested read-out: IC50. Entry: CC(C)Oc1ccc2c(c1)Oc1ccccc1S2(=O)=O [Compound 5, 3-isopropoxyphenoxathiin 10,10-dioxide]
3.4

Requested read-out: IC50. Entry: CC(C)Oc1cc(F)c2c(c1)Oc1cc(F)ccc1S2(=O)=O
5

Requested read-out: IC50. Entry: CC[C@@H](C)Oc1ccc2c(c1)Oc1ccccc1S2(=O)=O
4

Further cases:
Requested read-out: IC50. Entry: CC[C@H](C)Oc1ccc2c(c1)Oc1ccccc1S2(=O)=O
4

Requested read-out: IC50. Entry: CC(C)Oc1ccc2c(c1)Oc1cc(F)c(F)cc1S2(=O)=O
6

Requested read-out: IC50. Entry: COc1ccc2c(c1)Oc1ccccc1S2(=O)=O [Compound 14, 3-methoxyphenoxathiin 10,10-dioxide]
20

Requested read-out: IC50. Entry: O=S1(=O)c2ccccc2Oc2cc(OCC(F)(F)F)ccc21
8

Requested read-out: IC50. Entry: CC(C)Oc1ccc2c(c1)Oc1cccc(F)c1S2(=O)=O
8

---

Assayed target: MAO-A (Rattus norvegicus, UniProt P21396)
Construct: mitochondrial extracts of rat brain; from tissue; host or cells: rat brain, mitochondrial extracts
Method: MAO-A inhibition in mitochondrial extracts of rat brain (in vitro, double-label assay)
Format: biochemical
Condition label: [3H]serotonin 0.2 mM substrate
Measured attribute: pIC50
Just the number, please; pIC50 means minus log10 of the concentration in mol/L.

Requested read-out: pIC50. Entry: CCCCOc1ccc2c(c1)Oc1ccccc1S2(=O)=O [Compound 8, 3-butoxyphenoxathiin 10,10-dioxide]
8.30

Requested read-out: pIC50. Entry: CC(Oc1ccc2c(c1)Oc1ccccc1S2(=O)=O)C(F)(F)F (single isomer, unassigned) [Compound 29]
8.70

Requested read-out: pIC50. Entry: CC(C)Oc1cc(F)c2c(c1)Oc1ccccc1S2(=O)=O
8.96

Consider the record given below.
Requested read-out: pIC50. Entry: CCCCCOc1ccc2c(c1)Oc1ccccc1S2(=O)=O [Compound 17, 3-(pentyloxy)phenoxathiin 10,10-dioxide]
7.26
